This collection of values is drawn from PubChem BioAssay.

test: inhibitors of hydroxyurea-induced Chk1 phosphorylation, primary screen, imaging, HeLa, phospho-Chk1 antibody, percent positive cells (AID 1186); conditions: hydroxyurea-induced phospho-Chk1 immunofluorescence imaging, higher = more signal
ASSAY METRIC: z-score
Answers are plain numbers.

Worked examples, 5 molecules total:
-- ask Entry under review: O=C1c2ccccc2[C@@]2(Cc3ccccc3N(CC(F)(F)F)C2=O)[C@H](c2ccc(CO)cc2)N1Cc1ccccc1Cl . Reported z-score?
-- reply -0.19

-- ask Try this molecule too: C=CC[C@@]1(C(=O)NCc2ccccc2)N=C(c2ccc(OCCCO)cc2)O[C@@H]1c1ccccc1N=[N+]=[N-]
-- reply -0.334

-- ask Try this molecule too: COCCOC(=O)N1C(=O)[C@@]2(c3cc(C#CCCO)ccc31)[C@H](C(=O)N1CCc3cc(OC)c(OC)cc3C1)[C@H]1C(=O)O[C@H](c3ccccc3)[C@H](c3ccccc3)N1[C@@H]2c1ccc(O)cc1
-- reply -0.463

-- ask Try this molecule too: COCCOC(=O)N1C(=O)[C@@]2(c3cc(C#CC4=CCCCC4)ccc31)[C@H](C(=O)Nc1nc3ccccc3s1)[C@H]1C(=O)O[C@H](c3ccccc3)[C@H](c3ccccc3)N1[C@@H]2c1ccccc1OCCO
-- reply -0.169

-- ask Try this molecule too: COc1ccc([Si](C)(C)[C@H]2[C@H](CC(=O)N3CCC[C@H]3CO)O[C@@]3(C(=O)N(Cc4cccc(N5C(=O)c6cccc7cccc5c67)c4)c4ccccc43)[C@@H]2C)cc1
-- reply -0.0887

***
-- ask Entry under review: COC(=O)c1c(CC[C@@H](CO)NC(=O)N[C@@H](C)Cn2cc(C3(O)CCCCC3)nn2)oc(C(C)=O)c1C(=O)OC . Reported z-score?
-- reply 0.0032
